# system.name: 17β-HSD10 (Homo sapiens)
# Construct: Histev (histidine tag with TEV site) (N, cleaved yes); made in house; host or cells: E. coli BL21-CodonPlus
# Sequence (Q99714 1-261): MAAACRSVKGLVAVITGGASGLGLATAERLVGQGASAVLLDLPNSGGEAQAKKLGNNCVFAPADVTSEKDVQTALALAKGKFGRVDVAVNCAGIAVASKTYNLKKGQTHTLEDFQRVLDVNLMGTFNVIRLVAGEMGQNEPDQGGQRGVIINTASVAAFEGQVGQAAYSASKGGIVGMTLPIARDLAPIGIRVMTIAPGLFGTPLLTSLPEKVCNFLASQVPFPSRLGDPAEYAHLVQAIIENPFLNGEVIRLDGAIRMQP
# assay.name: 17β-HSD10 (ABAD) enzyme inhibition assay, NADH oxidation read at 340 nm (primary screen and dose response)
# Format: biochemical
# experimental.conditions: recombinant 17βHSD10 enzyme assay
# Procedure: Cell pellets of E. coli BL21-CodonPlus cells containing Histev-17β-HSD10 protein were re-suspended for 30 min, 4° C., in lysis buffer (20 mM NaH2PO4, 30 mM imidazole, 500 mM NaCl, 10% (v/v) glycerol, pH 7.5) with the addition of complete ethylenediaminetetraacetic acid (EDTA)-free protease inhibitor tablets (Roche), lysozyme (1 mg/mL), deoxyribonuclease (DNase) (20 μg/mL) and Triton X-100 (0.1% (v/v)). […]
reported.metric: Max. Effect (%)
Supply the numeric figure in %, leaving out any unit text.

What does the data say about its Max. Effect (%)? Entry: CC(C)N(C(=O)c1ccccc1F)c1cccc(N(C)Cc2cnc[nH]2)c1 [ESC1002078]
97

What does the data say about its Max. Effect (%)? Entry: O=C(c1ccccc1F)N1CCCc2ccc(NCc3cnc[nH]3)cc21 [ESC1002081]
0

What does the data say about its Max. Effect (%)? Entry: O=C(c1sccc1Cl)N1CCCC1c1ccccc1-c1cccc(O)c1 (racemic) [ESC1002666]
99

What does the data say about its Max. Effect (%)? Entry: CC(C)CN(C(=O)c1ccc(F)cc1F)c1cccc(N(C)Cc2c[nH]cn2)c1 [ESC1002454]
96

What does the data say about its Max. Effect (%)? Entry: Cc1ccsc1C(=O)N1CCC[C@H]1c1ccccc1-c1ccc(C(F)(F)F)cc1 [ESC1002314]
99

What does the data say about its Max. Effect (%)? Entry: CC(C)CN(C(=O)c1ccccc1F)c1ccc2c(c1)N(Cc1cnc[nH]1)CCC2 [ESC1002236]
30

What does the data say about its Max. Effect (%)? Entry: CCN(C(=O)c1ccccc1F)c1cccc(N(C)Cc2cnc[nH]2)c1 [ESC1002234]
94

What does the data say about its Max. Effect (%)? Entry: Cc1ccc(C(=O)N(CC2CC2)c2cccc(N(C)Cc3c[nH]cn3)c2)cc1 [ESC1002399]
95

What does the data say about its Max. Effect (%)? Entry: O=C(c1sccc1Cl)N1CCC[C@H]1c1ccccc1-c1ccc(O)cc1 (racemic) [ESC1002696]
97

What does the data say about its Max. Effect (%)? Entry: CN(Cc1cnc[nH]1)c1cccc(NC(=O)c2ccccc2F)c1 [ESC1002056]
4

What does the data say about its Max. Effect (%)? Entry: O=C(c1cccnc1)N1CCC[C@H]1c1ccccc1 [S1−T12]
9.1

What does the data say about its Max. Effect (%)? Entry: COc1ccccc1C(=O)N(CC(C)C)c1cccc(N(C)Cc2c[nH]cn2)c1 [ESC1002458]
96

What does the data say about its Max. Effect (%)? Entry: COc1ccc(C(=O)N(CC(C)C)c2cccc(N(C)Cc3cnc[nH]3)c2)cc1 [ESC1002182]
99

What does the data say about its Max. Effect (%)? Entry: Cc1ccsc1C(=O)N1CCC[C@@H]1c1ccccc1-c1c[nH]nc1C [ESC1002464]
84

What does the data say about its Max. Effect (%)? Entry: COc1ccc(-c2ccccc2[C@@H]2CCCN2C(=O)c2sccc2C)cn1 (single isomer, unassigned) [ESC1002161]
7

What does the data say about its Max. Effect (%)? Entry: Cc1ccsc1C(=O)N1CCC[C@H]1c1ccccc1-c1cccc(C(F)(F)F)c1 (racemic) [ESC1002789]
11

What does the data say about its Max. Effect (%)? Entry: CC(C)CN(C(=O)c1ccccc1F)c1cccc(N(C)CC(N)=O)c1 [ESC1002570]
48

What does the data say about its Max. Effect (%)? Entry: COc1cccc(-c2ccccc2[C@@H]2CCCN2C(=O)c2cocn2)c1 (racemic) [ESC1002598]
50
